- Test system: Staphylococcus sp.
- assaySummary: in vitro antibacterial evaluation, MIC by broth dilution
- Type: cell-based
- measurementConditions: broth dilution, 18 hours at 35° C.; strain GC 4542
outcomeMeasure: MIC Staphylococcus aureus (GC 4542) (µg/mL)

[[record]]
compound = "CC(C)CCC(=O)OC1C(OC2C(CO)OC(Oc3ccc(CC4NC(=O)C(C(C)c5ccccc5)NC(=O)CNC(=O)C(CO)NC(=O)C(C(O)C5CNC(=N)N5C5OC(CO)C(O)C(O)C5O)NC(=O)C(C(O)C5CNC(=N)N5)NC4=O)cc3)C(O)C2O)OC(CO)C(O)C1O (stereo not shown) [Example 270a]"
readoutrelation = "="
reported = 4

[[record]]
compound = "COc1cc(OC)cc(C2OCC3OC(OC4C(CO)OC(Oc5ccc(CC6NC(=O)C(C(C)c7ccccc7)NC(=O)CNC(=O)C(CO)NC(=O)C(C(O)C7CNC(=N)N7C7OC(CO)C(O)C(O)C7O)NC(=O)C(C(O)C7CNC(=N)N7)NC6=O)cc5)C(O)C4O)C(O)C(O)C3O2)c1 (stereo not shown)"
readoutrelation = "="
reported = 2

[[record]]
compound = "CC(c1ccccc1)C1NC(=O)CNC(=O)C(CO)NC(=O)C(C(O)C2CNC(=N)N2C2OC(CO)C(O)C(O)C2O)NC(=O)C(C(O)C2CNC(=N)N2)NC(=O)C(Cc2ccc(OC3OC(CO)C(OC4OC5COC(C6CC=CCC6)OC5C(O)C4O)C(O)C3O)cc2)NC1=O (stereo not shown)"
readoutrelation = "="
reported = 0.5

[[record]]
compound = "CCCCCNC(=O)OC1C(CO)OC(OC2C(CO)OC(Oc3ccc(CC4NC(=O)C(C(C)c5ccccc5)NC(=O)CNC(=O)C(CO)NC(=O)C(C(O)C5CNC(=N)N5C5OC(CO)C(O)C(O)C5O)NC(=O)C(C(O)C5CNC(=N)N5)NC4=O)cc3)C(O)C2O)C(O)C1O (stereo not shown)"
readoutrelation = ">"
reported = 64


###

- Tested on: Staphylococcus sp.
- assaySummary: in vitro antibacterial evaluation, MIC by broth dilution
- Assay type: cell-based
- measurementConditions: broth dilution, 18 hours at 35° C.
outcomeMeasure: MIC Staphylococcus aureus (GC 3053) (µg/mL)

[[record]]
compound = "Cc1ccc(COCC2OC(OC3C(CO)OC(Oc4ccc(CC5NC(=O)C(C(C)c6ccccc6)NC(=O)CNC(=O)C(CO)NC(=O)C(C(O)C6CNC(=N)N6C6OC(CO)C(O)C(O)C6O)NC(=O)C(C(O)C6CNC(=N)N6)NC5=O)cc4)C(O)C3O)C(O)C(O)C2O)cc1 (centres unmarked)"
experimentalsystem = "Staphylococcus sp."
outcomemeasure = "MIC Staphylococcus aureus (GC 3053)"
reported = 2

[[record]]
compound = "COc1ccc2cc(COC3C(CO)OC(OC4C(CO)OC(Oc5ccc(CC6NC(=O)C(C(C)c7ccccc7)NC(=O)CNC(=O)C(CO)NC(=O)C(CC7CNC(=N)N7C7OC(CO)C(O)C(O)C7O)NC(=O)C(CC7CNC(=N)N7)NC6=O)cc5)C(O)C4O)C(O)C3O)ccc2c1 (centres unmarked) [Example 245a]"
experimentalsystem = "Staphylococcus sp."
outcomemeasure = "MIC Staphylococcus aureus (GC 3053)"
reported = 2


###

Reported MIC Streptococcus agalactiae (GC 4564) by item:
- Test system: Streptococcus sp.
- assaySummary: in vitro antibacterial evaluation, MIC by broth dilution
- Assay type: cell-based
- measurementConditions: broth dilution, inoculum 5×10^5 CFU/mL, 18 hours at 35° C.; strain GC 4564
outcomeMeasure: MIC Streptococcus agalactiae (GC 4564) (mg/L)

[[record]]
molecule = "CC(c1ccccc1)C1NC(=O)CNC(=O)C(CO)NC(=O)C(CC2CNC(=N)N2C2OC(CO)C(O)C(O)C2O)NC(=O)C(CC2CNC(=N)N2)NC(=O)C(Cc2ccc(OC3OC(CO)C(OC4OC(CO)C(OCc5ccc(OCc6ccccc6)cc5)C(O)C4O)C(O)C3O)cc2)NC1=O (stereo not shown) [Example 246a]"
readoutrelation = "="
reported = 0.5

[[record]]
molecule = "CC(c1ccccc1)C1NC(=O)CNC(=O)C(CO)NC(=O)C(C(O)C2CNC(=N)N2C2OC(CO)C(O)C(O)C2O)NC(=O)C(C(O)C2CNC(=N)N2)NC(=O)C(Cc2ccc(OC3OC(CO)C(OC4OC(CO)C(O)C5OC6(CCCCCCCCCCCC6)OC45)C(O)C3O)cc2)NC1=O (stereo not shown) [Example 210a]"
readoutrelation = "="
reported = 2

[[record]]
molecule = "CC(C)=CCCC(C)=CCOc1ccc(C2OCC3OC(OC4C(CO)OC(Oc5ccc(CC6NC(=O)C(C(C)c7ccccc7)NC(=O)CNC(=O)C(CO)NC(=O)C(C(O)C7CNC(=N)N7C7OC(CO)C(O)C(O)C7O)NC(=O)C(C(O)C7CNC(=N)N7)NC6=O)cc5)C(O)C4O)C(O)C(O)C3O2)cc1 (stereo not shown) [Example 183]"
readoutrelation = "<"
reported = 0.06

